Molecular target: T1, His-tagged human TSLP antigen (huTSLP-his) (human)
T1 construct: Secreted from HEK293E and purified on nickel; whole entry named; also called Human TSLP-his
Test: Biacore T200, antibody captured on Protein A chip, antigen in flow, 1:1 Langmuir
property.label: Kd (pM)
Entry rule: numbers only, all in pM.

Query: What Kd value was documented for this binder, AMG157 (tezepelumab, anti-TSLP antibody) (antibody, human IgG2, lambda, V domains shown, positive control) VH: QMQLVESGGGVVQPGRSLRLSCAASGFTFRTYGMHWVRQAPGKGLEWVAVIWYDGSNKHYADSVKGRFTITRDNSKNTLNLQMNSLRAEDTAVYYCARAPQWELVHEAFDIWGQGTMVTVSS VL: SYVLTQPPSVSVAPGQTARITCGGNNLGSKSVHWYQQKPGQAPVLVVYDDSDRPSWIPERFSGSNSGNTATLTISRGEAGDEADYYCQVWDSSSDHVVFGGGTKLTVLG ?
Response: 8.12
